target: Substance-P receptor (Homo sapiens)
protocol-details: Displacement of [125I]-BH-SP from NK1R (unknown origin) transfected in CHO cells at 10 uM by gamma counting analysis
Format: cell-based
Residues, ends and D or L forms follow the SMILES beside them.
This listing pairs molecules with measured inhibition.
assay-readout: inhibition (%)

- CC[C@H](C)[C@H](NC(=O)[C@H](Cc1ccccc1)NC(=O)[C@H](C)NC(=O)[C@H](CC(=O)O)NC(=O)[C@H](CCCCN)NC(=O)[C@H](CO)NC(=O)[C@@H]1CCCN1C(=O)[C@@H]1CCC(=O)N1)C(=O)NCC(=O)N[C@@H](CC(C)C)C(=O)N[C@@H](CCSC)C(N)=O [ELEDOISIN] (HELM PEPTIDE1{[Glp].P.S.K.D.A.F.I.G.L.M.[am]}$$$$V2.0): 100
- CSCC[C@H](NC(=O)[C@H](CC(C)C)NC(=O)CNC(=O)[C@H](Cc1ccc(O)cc1)NC(=O)[C@H](Cc1ccccc1)NC(=O)[C@H](CCC(=O)O)NC(=O)[C@H](CC(=O)O)NC(=O)[C@@H]1CCCN1C(=O)[C@H](CC(N)=O)NC(=O)[C@@H]1CCCN1C(=O)[C@@H]1CCC(=O)N1)C(N)=O (HELM PEPTIDE1{[Glp].P.N.P.D.E.F.Y.G.L.M.[am]}$$$$V2.0): 98

###

target: Neuromedin-K receptor (Homo sapiens)
Sequence (P29371 whole entry): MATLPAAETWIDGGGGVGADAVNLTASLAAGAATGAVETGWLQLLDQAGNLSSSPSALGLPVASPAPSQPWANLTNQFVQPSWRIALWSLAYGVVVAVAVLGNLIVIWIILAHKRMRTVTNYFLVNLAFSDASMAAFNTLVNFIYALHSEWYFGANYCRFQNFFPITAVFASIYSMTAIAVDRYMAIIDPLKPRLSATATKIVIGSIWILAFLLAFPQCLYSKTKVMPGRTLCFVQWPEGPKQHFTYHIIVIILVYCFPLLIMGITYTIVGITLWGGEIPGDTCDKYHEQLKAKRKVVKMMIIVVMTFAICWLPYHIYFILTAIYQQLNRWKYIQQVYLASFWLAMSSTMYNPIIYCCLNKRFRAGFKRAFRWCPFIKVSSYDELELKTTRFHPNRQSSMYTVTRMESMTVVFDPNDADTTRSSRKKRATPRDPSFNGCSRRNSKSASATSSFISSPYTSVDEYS
protocol-details: Agonist activity at NK3R (unknown origin) transfected in CHO cells assessed as calcium influx […]
Residues, ends and D or L forms follow the SMILES beside them.
assay-readout: EC50 (nM)

- CSCC[C@H](NC(=O)[C@H](CC(C)C)NC(=O)CNC(=O)[C@H](Cc1ccccc1)N(C)C(=O)[C@H](Cc1ccccc1)NC(=O)[C@H](CO)NC(=O)[C@H](CC(=O)O)NC(=O)[C@H](Cc1cnc[nH]1)NC(=O)[C@H](CCSC)NC(=O)[C@@H](N)CC(=O)O)C(N)=O (HELM PEPTIDE1{D.M.H.D.S.F.[meF].G.L.M.[am]}$$$$V2.0): 0.04
- CSCC[C@H](NC(=O)[C@H](CC(C)C)NC(=O)CNC(=O)[C@H](Cc1ccccc1)N(C)C(=O)[C@H](Cc1ccccc1)NC(=O)[C@@H]1CCCN1C(=O)[C@H](CC(=O)O)NC(=O)[C@H](Cc1cnc[nH]1)NC(=O)[C@H](CCSC)NC(=O)[C@@H](N)CC(=O)O)C(N)=O (HELM PEPTIDE1{D.M.H.D.P.F.[meF].G.L.M.[am]}$$$$V2.0): 0.041
- CSCC[C@H](NC(=O)[C@H](CC(C)C)NC(=O)CNC(=O)[C@H](Cc1ccccc1)N(C)C(=O)[C@H](Cc1ccccc1)NC(=O)[C@H](CC(=O)O)NC(=O)[C@H](CC(=O)O)NC(=O)[C@@H]1CCCN1C(=O)[C@H](CCCN=C(N)N)NC(=O)[C@@H]1CCCN1C(=O)[C@@H](N)CCCCN)C(N)=O (HELM PEPTIDE1{K.P.R.P.D.D.F.[meF].G.L.M.[am]}$$$$V2.0): 5.04

###

target: Neuromedin-K receptor (Homo sapiens)
protocol-details: Displacement of ([125I]-His3, MePhe7)-NKB from NK3R (unknown origin) transfected in CHO cells by gamma counting analysis
Residues, ends and D or L forms follow the SMILES beside them.
assay-readout: IC50

- CSCC[C@H](NC(=O)[C@H](CC(C)C)NC(=O)CNC(=O)[C@H](Cc1ccccc1)N(C)C(=O)[C@H](Cc1ccccc1)NC(=O)[C@H](CC(=O)O)NC(=O)[C@H](CC(=O)O)NC(=O)[C@H](CCCCN)NC(=O)[C@H](CO)NC(=O)[C@@H]1CCCN1C(=O)[C@@H]1CCC(=O)N1)C(N)=O (HELM PEPTIDE1{[Glp].P.S.K.D.D.F.[meF].G.L.M.[am]}$$$$V2.0): 5.5 nM
- CSCC[C@H](NC(=O)[C@H](CC(C)C)NC(=O)CNC(=O)[C@H](Cc1ccccc1)N(C)C(=O)[C@H](Cc1ccccc1)NC(=O)[C@H](CC(=O)O)NC(=O)[C@H](CC(N)=O)NC(=O)[C@@H]1CCCN1C(=O)[C@H](CO)NC(=O)[C@@H]1CCCN1C(=O)[C@@H]1CCC(=O)N1)C(N)=O (HELM PEPTIDE1{[Glp].P.S.P.N.D.F.[meF].G.L.M.[am]}$$$$V2.0): 17 nM
- CSCC[C@H](NC(=O)[C@H](CC(C)C)NC(=O)CNC(=O)[C@H](Cc1ccccc1)N(C)C(=O)[C@H](Cc1ccccc1)NC(=O)[C@H](CCCCN)NC(=O)[C@H](CC(=O)O)NC(=O)[C@H](Cc1cnc[nH]1)NC(=O)[C@H](CCSC)NC(=O)[C@@H](N)CC(=O)O)C(N)=O (HELM PEPTIDE1{D.M.H.D.K.F.[meF].G.L.M.[am]}$$$$V2.0): 11 nM
- CSCC[C@H](NC(=O)[C@H](CC(C)C)NC(=O)CNC(=O)[C@H](Cc1ccccc1)N(C)C(=O)[C@H](Cc1ccccc1)NC(=O)CNC(=O)[C@H](CC(=O)O)NC(=O)[C@H](Cc1cnc[nH]1)NC(=O)[C@H](CCSC)NC(=O)[C@@H](N)CC(=O)O)C(N)=O (HELM PEPTIDE1{D.M.H.D.G.F.[meF].G.L.M.[am]}$$$$V2.0): 13 nM
- CSCC[C@H](NC(=O)[C@H](CC(C)C)NC(=O)CNC(=O)[C@H](Cc1ccccc1)N(C)C(=O)[C@H](Cc1ccccc1)NC(=O)[C@H](CCSC)NC(=O)[C@H](CC(=O)O)NC(=O)[C@H](Cc1cnc[nH]1)NC(=O)[C@H](CCSC)NC(=O)[C@@H](N)CC(=O)O)C(N)=O (HELM PEPTIDE1{D.M.H.D.M.F.[meF].G.L.M.[am]}$$$$V2.0): 1.7 nM
- CSCC[C@H](NC(=O)[C@H](CC(C)C)NC(=O)CNC(=O)[C@H](Cc1ccccc1)N(C)C(=O)[C@H](Cc1ccccc1)NC(=O)[C@H](CC(C)C)NC(=O)[C@H](CC(=O)O)NC(=O)[C@H](Cc1cnc[nH]1)NC(=O)[C@H](CCSC)NC(=O)[C@@H](N)CC(=O)O)C(N)=O (HELM PEPTIDE1{D.M.H.D.L.F.[meF].G.L.M.[am]}$$$$V2.0): 6.9 nM
- CC[C@H](C)[C@H](NC(=O)[C@H](Cc1ccccc1)NC(=O)[C@H](CC(=O)O)NC(=O)[C@H](CC(=O)O)NC(=O)[C@H](CCCCN)NC(=O)[C@H](CO)NC(=O)[C@@H]1CCCN1C(=O)[C@@H]1CCC(=O)N1)C(=O)NCC(=O)N[C@@H](CC(C)C)C(=O)N[C@@H](CCSC)C(N)=O (HELM PEPTIDE1{[Glp].P.S.K.D.D.F.I.G.L.M.[am]}$$$$V2.0): 35 nM
- CSCC[C@H](NC(=O)[C@H](CC(C)C)NC(=O)CNC(=O)[C@H](Cc1ccc(O)cc1)NC(=O)[C@H](Cc1ccccc1)NC(=O)[C@H](CCC(=O)O)NC(=O)[C@H](CC(=O)O)NC(=O)[C@@H]1CCCN1C(=O)[C@H](CC(N)=O)NC(=O)[C@@H]1CCCN1C(=O)[C@@H]1CCC(=O)N1)C(N)=O (HELM PEPTIDE1{[Glp].P.N.P.D.E.F.Y.G.L.M.[am]}$$$$V2.0): 710 nM
- CSCC[C@H](NC(=O)[C@H](CC(C)C)NC(=O)CNC(=O)[C@H](Cc1ccccc1)N(C)C(=O)[C@H](Cc1ccccc1)NC(=O)[C@H](C)NC(=O)[C@H](CC(=O)O)NC(=O)[C@H](Cc1cnc[nH]1)NC(=O)[C@H](CCSC)NC(=O)[C@@H](N)CC(=O)O)C(N)=O (HELM PEPTIDE1{D.M.H.D.A.F.[meF].G.L.M.[am]}$$$$V2.0): 4.4 nM
- CSCC[C@H](NC(=O)[C@H](CC(C)C)NC(=O)CNC(=O)[C@H](Cc1ccccc1)N(C)C(=O)[C@H](Cc1ccccc1)NC(=O)[C@H](Cc1ccccc1)NC(=O)[C@H](CC(=O)O)NC(=O)[C@H](Cc1cnc[nH]1)NC(=O)[C@H](CCSC)NC(=O)[C@@H](N)CC(=O)O)C(N)=O (HELM PEPTIDE1{D.M.H.D.F.F.[meF].G.L.M.[am]}$$$$V2.0): 3 nM
- CSCC[C@H](NC(=O)[C@H](CC(C)C)NC(=O)CNC(=O)[C@H](Cc1ccccc1)N(C)C(=O)[C@H](Cc1ccccc1)NC(=O)[C@H](CCCN=C(N)N)NC(=O)[C@H](CC(=O)O)NC(=O)[C@H](Cc1cnc[nH]1)NC(=O)[C@H](CCSC)NC(=O)[C@@H](N)CC(=O)O)C(N)=O (HELM PEPTIDE1{D.M.H.D.R.F.[meF].G.L.M.[am]}$$$$V2.0): 2.5 nM

Where do these numbers come from? They come from ChEMBL document CHEMBL2346651.
